- Test system: in vivo angiogenesis, blood vessel count
- Test Name: reduction of blood vessel formation in vivo – HTS, in vivo study (AID 732);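 also: zebrafish embryos dosed at one day post fertilization; 0% = reference inhibitor and 100% = plate mean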
- Run Conditions: stronger effect = lower value;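 tested at 30 µM in the well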

- Molecule: "CP(=O)(O)CCCN"
  vessel count % control, %: 76.1
- Molecule: "CCCc1c(OCCCOc2ccc(OCC(=O)O)cc2)ccc(C(C)=O)c1O"
  vessel count % control, %: 92.9
- Molecule: "NNCCc1ccccc1"
  vessel count % control, %: 104
- Molecule: "COC1(C2=NCCN2)COc2ccccc2O1 (stereo not drawn)"
  vessel count % control, %: 121
- Molecule: "Oc1cc(O)cc(/C=C/c2ccc(O)c(O)c2)c1"
  vessel count % control, %: 101
- Molecule: "NC(C(=O)N[C@@H]1C(=O)N2C(C(=O)O)=C(Cl)CS[C@H]12)c1ccccc1 (stereo partly drawn)"
  vessel count % control, %: 108
- Molecule: "Nc1c2c(nc3ccccc13)CCCC2"
  vessel count % control, %: 91.9
- Molecule: "COc1ccc(Cc2nccc3cc(OC)c(OC)cc23)cc1OC"
  vessel count % control, %: 110
- Molecule: "CNC(=O)OCC[N+](C)(C)C"
  vessel count % control, %: 96.2
- Molecule: "CN(C)CC[C@@H](c1ccc(Cl)cc1)c1ccccn1"
  vessel count % control, %: 107
- Molecule: "CCN(CC)CCCC(C)Nc1c2ccc(Cl)cc2nc2ccc(OC)cc12 (stereo not drawn)"
  vessel count % control, %: 0
- Molecule: "O=c1[nH]c2cc([N+](=O)[O-])c([N+](=O)[O-])cc2[nH]c1=O"
  vessel count % control, %: 104
- Molecule: "NCC(CC(=O)O)c1ccc(Cl)cc1 (stereo not drawn)"
  vessel count % control, %: 100
- Molecule: "CCCCNc1c(C(=O)OCC)c(C)nc2c1cnn2CC"
  vessel count % control, %: 87.3
- Molecule: "CN1C(=O)CCS(=O)(=O)C1c1ccc(Cl)cc1 (stereo not drawn)"
  vessel count % control, %: 97
- Molecule: "COc1ccc(C(=O)NCc2cccnc2)cc1C(=O)NCc1cccnc1"
  vessel count % control, %: 109
- Molecule: "OCCN1CCN(CCCN2c3ccccc3Sc3ccc(C(F)(F)F)cc32)CC1"
  vessel count % control, %: 116
- Molecule: "O=C1C2C=CC=CC2=NC(=S)N1CCN1CCC(=C(c2ccc(F)cc2)c2ccc(F)cc2)CC1 (stereo not drawn)"
  vessel count % control, %: 78.2
